system: Epidermal growth factor receptor (Homo sapiens), P00533 [L858R,T790M]; details: at 0.1 µM
Sequence (P00533 whole entry T790M/L858R, looked up): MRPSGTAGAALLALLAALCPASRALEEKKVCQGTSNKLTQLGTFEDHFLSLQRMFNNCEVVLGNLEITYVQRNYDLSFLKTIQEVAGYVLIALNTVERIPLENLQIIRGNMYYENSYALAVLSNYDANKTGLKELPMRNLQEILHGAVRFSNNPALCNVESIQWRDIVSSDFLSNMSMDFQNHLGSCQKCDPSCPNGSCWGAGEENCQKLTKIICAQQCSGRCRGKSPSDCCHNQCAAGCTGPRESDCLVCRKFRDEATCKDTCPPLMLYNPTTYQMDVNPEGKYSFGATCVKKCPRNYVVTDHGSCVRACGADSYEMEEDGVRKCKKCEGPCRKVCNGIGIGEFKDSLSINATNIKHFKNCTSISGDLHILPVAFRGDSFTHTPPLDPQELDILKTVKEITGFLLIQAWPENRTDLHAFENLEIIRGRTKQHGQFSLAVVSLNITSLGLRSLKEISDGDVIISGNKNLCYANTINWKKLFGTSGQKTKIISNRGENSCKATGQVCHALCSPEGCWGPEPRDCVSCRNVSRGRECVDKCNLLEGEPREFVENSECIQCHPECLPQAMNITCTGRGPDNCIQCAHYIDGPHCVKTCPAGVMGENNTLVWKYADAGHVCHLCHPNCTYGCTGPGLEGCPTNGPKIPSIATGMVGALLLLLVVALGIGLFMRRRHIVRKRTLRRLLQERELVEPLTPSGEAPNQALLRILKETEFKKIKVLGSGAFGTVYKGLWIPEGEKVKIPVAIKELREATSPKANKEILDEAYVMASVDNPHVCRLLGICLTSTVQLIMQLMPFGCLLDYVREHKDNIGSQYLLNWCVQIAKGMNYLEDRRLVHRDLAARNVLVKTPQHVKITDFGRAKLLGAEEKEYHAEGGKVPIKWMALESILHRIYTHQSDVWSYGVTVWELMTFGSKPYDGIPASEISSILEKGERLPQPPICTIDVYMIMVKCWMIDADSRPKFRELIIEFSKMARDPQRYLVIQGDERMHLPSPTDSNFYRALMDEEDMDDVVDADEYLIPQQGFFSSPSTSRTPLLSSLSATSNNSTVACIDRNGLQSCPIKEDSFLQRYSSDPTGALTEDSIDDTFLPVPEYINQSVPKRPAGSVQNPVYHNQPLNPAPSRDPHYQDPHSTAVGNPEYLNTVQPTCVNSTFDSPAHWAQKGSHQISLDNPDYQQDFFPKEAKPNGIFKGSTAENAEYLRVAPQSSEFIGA
ASSAY METRIC: inhibition (%)

> print(dat)
                        structure.as.smiles  data.value
1  CC1(C)CC(n2cnc(-c3ccc(F)cc3)c2-c2ccnc(N)n2)CC(C)(C)N1        2.59
2  COc1cc(N2CCN(C(C)C)CC2)ccc1Nc1nc(Nc2cccc3ncccc23)c2cc[nH]c2n1        1.03
3  O=C(O[C@H]1CN[C@H](C#Cc2cc3ncnc(Nc4ccc5c(ccn5Cc5cc(F)ccc5F)c4)c3s2)C1)N1CCOCC1        4.66
4  CS(=O)(=O)CCNCc1ccc(-c2ccc3ncnc(Nc4ccc(OCc5cccc(C(F)(F)F)c5)cc4)c3c2)o1        0.98
